Target or system UniProt:Q9H2H0: recorded IC50 listed per item.
Sequence (Q9H2H0 whole entry): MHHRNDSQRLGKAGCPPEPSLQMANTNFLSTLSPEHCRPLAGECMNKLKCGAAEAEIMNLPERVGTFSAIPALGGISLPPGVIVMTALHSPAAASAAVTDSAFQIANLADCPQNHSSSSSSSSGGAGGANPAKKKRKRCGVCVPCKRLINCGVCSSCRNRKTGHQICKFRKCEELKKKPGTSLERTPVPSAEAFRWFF
Your reply should be a number followed by the unit it is expressed in.

Answered cases to consult:
In [3]: df
Out[3]:
                              smiles_string    study_system  measured_metric  result
0    C=CC(=O)N1CCC(C(=O)O)(c2ccc(Cl)cc2)CC1  UniProt:Q9H2H0             IC50   33 µM
1    C=CC(=O)N1CCC(C(=O)O)(c2ccc(OC)cc2)CC1  UniProt:Q9H2H0             IC50   35 µM
2  C=CC(=O)N1CCC(c2cccc(OCC)c2)(c2nnn[nH]2)CC1  UniProt:Q9H2H0             IC50  2.2 µM
3  C=CC(=O)N1CCC(c2ccc(OC)cc2)(c2nnn[nH]2)CC1  UniProt:Q9H2H0             IC50  8.3 µM
4   C=CC(=O)N1CCC(C(=O)O)(c2ccc(OCC)cc2)CC1  UniProt:Q9H2H0             IC50  1.2 µM

Look at this compound and give its reported IC50. C=CC(=O)N1CCC(C(=O)O)(c2ccccc2)CC1
4 µM

Queued: C=CC(=O)N1CCC(c2ccc(OCC)cc2)(c2nnn[nH]2)CC1
8.9 µM

* * *

Study system: Lysine-specific demethylase 2A (Homo sapiens, UniProt Q9Y2K7)
Sequence (Q9Y2K7 whole entry): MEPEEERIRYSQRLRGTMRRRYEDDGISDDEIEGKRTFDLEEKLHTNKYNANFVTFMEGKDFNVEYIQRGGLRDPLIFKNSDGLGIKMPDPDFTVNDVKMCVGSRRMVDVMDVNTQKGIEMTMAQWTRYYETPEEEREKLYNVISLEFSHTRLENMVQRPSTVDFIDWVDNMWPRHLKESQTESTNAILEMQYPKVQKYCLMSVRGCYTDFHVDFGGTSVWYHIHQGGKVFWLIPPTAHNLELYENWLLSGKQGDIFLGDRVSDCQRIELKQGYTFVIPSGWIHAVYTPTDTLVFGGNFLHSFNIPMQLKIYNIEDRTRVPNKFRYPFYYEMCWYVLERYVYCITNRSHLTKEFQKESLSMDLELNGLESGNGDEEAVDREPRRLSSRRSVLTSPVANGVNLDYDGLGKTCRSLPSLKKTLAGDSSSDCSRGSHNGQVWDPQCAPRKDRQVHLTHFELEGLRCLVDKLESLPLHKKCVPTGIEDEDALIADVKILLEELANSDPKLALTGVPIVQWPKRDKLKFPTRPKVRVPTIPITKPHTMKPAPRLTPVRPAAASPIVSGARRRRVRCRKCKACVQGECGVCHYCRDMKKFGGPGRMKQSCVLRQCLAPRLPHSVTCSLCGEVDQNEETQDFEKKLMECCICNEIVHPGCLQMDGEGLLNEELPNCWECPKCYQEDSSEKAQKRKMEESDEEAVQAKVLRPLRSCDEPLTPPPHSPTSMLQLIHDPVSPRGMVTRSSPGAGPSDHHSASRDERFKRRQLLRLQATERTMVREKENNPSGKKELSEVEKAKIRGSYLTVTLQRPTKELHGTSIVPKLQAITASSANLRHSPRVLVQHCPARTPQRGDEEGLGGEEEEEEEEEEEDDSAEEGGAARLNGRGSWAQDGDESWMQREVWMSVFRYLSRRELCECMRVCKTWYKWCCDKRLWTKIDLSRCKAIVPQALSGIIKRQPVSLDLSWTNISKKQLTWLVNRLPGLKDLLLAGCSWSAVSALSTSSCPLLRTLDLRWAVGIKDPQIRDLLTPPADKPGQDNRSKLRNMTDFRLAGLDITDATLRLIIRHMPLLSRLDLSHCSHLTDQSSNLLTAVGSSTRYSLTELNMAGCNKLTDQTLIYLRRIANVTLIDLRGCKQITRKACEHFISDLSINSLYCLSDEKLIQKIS
pIC50: −log10 of the molar value.
// no strictly below 5 in pIC50; yes otherwise

Answered cases to consult:
>>> print(df.to_string())
                            smiles_string  answer_label
0  C=CC(=O)N1CCC(C(=O)O)(c2ccc(Cl)cc2)CC1            no
1      C=CC(=O)N1CCC(C(=O)O)(c2ccccc2)CC1           yes
2  C=CC(=O)N1CCC(C(=O)O)(c2ccc(OC)cc2)CC1            no

Now, please, on to the next compound.
Assess whether reported pIC50 for C=CC(=O)N1CCC(C(=O)O)(c2ccc(OCC)cc2)CC1 sits at 5 or higher.
yes

* * *

IC50 reference
Study system: F-box/LRR-repeat protein 19 (Homo sapiens, UniProt Q6PCT2)
Sequence (Q6PCT2 whole entry): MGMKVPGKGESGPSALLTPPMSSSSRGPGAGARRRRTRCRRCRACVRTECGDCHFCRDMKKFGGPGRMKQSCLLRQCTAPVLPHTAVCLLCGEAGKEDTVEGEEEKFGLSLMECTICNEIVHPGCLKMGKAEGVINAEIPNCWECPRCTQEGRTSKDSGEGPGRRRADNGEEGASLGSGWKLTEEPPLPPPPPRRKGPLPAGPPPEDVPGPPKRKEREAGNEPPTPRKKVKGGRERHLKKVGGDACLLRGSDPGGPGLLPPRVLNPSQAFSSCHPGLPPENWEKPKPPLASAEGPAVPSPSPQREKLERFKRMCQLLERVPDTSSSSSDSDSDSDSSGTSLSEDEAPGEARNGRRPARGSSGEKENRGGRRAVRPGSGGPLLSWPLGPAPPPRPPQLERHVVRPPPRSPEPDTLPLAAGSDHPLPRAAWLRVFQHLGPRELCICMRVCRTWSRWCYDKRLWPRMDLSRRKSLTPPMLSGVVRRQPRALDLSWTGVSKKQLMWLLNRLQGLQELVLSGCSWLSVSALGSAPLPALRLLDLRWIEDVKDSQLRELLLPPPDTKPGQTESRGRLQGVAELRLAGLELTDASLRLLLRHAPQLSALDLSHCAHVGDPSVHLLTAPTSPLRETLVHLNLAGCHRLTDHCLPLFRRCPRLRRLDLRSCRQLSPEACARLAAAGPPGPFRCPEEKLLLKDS
Your answer should be a plain number; it is taken to be in µM.

In [3]: df
Out[3]:
                             smiles_string                              study_system  measured_metric  units_symbol  number
0  C=CC(=O)N1CCC(C(=O)O)(c2ccc(OCC)cc2)CC1  F-box/LRR-repeat protein 19 (Homo sapiens, UniProt Q6PCT2)             IC50            µM     2.4

Could you tell me which IC50 is on file for C=CC(=O)N1CCC(c2cccc(OCC)c2)(c2nnn[nH]2)CC1 ?
2.6

What about this molecule? C=CC(=O)N1CCC(C(=O)NS(=O)(=O)c2ccccc2)(c2ccccc2)CC1
21.7

Now the molecule C=CC(=O)N1CCC(c2ccccc2)(c2nnn[nH]2)CC1
3.1

Try the molecule C=CC(=O)N1CCC(C(=O)O)(c2ccc(Cl)cc2)CC1
31

Likewise for C=CC(=O)N1CCC(C(=O)O)(c2ccccc2)CC1 ?
1.8

What about C=CC(=O)N1CCC(c2ccc(OC)cc2)(c2nnn[nH]2)CC1 ?
8.9

Another molecule: C=CC(=O)N1CCC(C(=O)O)(c2ccc(OC)cc2)CC1
17

Each recorded value in this set is attributed to ChEMBL document CHEMBL5120972.
